target: T1, human LTBR ECD (S28-M227) N- and C-terminally extended-Fc-fusion wt kih HRYF-Avi-His biotinylated (P1AE7979) (human, UniProt P0DOX5 223-449 = IgG part, biotinylated avi tag); assay: SPR, IgG captured;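 further: rate constants and KD obtained by fitting double-referenced sensorgrams to a 1:1 Langmuir binding model, with dissociation followed for 600 s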
T1 construct: also called hu LTBR
MEASURED QUANTITY: koff (s⁻¹)
Report only the number, with the unit s⁻¹ understood.

Some solved cases for reference:
[
  {
    "BINDER": "P1AE1873 (CBE11) (antibody, human IgG1, kappa, L234A L235A, V domains shown) VH: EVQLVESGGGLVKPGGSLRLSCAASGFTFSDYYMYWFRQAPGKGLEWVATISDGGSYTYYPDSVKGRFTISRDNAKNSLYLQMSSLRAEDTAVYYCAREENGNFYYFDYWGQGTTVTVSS VL: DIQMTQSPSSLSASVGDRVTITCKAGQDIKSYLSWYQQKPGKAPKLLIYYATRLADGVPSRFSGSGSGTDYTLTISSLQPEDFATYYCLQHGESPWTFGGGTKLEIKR",
    "koff, s⁻¹": 0.00543
  },
  {
    "BINDER": "P1AF0079 (antibody, human IgG1, kappa, L234A L235A, V domains shown, human IgG1 PG LALA; from transgenic rabbit immunization; also called LTBR (0079)) VH: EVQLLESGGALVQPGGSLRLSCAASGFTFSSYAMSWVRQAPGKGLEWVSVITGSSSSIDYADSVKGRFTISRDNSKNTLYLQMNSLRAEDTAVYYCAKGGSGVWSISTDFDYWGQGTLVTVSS VL: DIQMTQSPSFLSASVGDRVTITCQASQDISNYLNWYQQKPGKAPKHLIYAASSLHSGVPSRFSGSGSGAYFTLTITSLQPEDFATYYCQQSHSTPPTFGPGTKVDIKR",
    "koff, s⁻¹": 0.00249
  },
  {
    "BINDER": "P1AE9452 (antibody, human IgG1, kappa, L234A L235A, V domains shown, human IgG1 PG LALA; from transgenic rabbit immunization; also called LTBR (9452)) VH: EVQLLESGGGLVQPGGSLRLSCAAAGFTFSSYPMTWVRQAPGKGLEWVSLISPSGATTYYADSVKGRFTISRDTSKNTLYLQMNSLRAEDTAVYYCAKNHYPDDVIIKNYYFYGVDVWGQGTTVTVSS VL: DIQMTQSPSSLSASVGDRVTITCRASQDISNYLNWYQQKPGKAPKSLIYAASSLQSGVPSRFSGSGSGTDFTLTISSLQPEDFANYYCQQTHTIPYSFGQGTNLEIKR",
    "koff, s⁻¹": "5.26e-05"
  }
]

Value lookup for koff; key = P1AF0080 (antibody, human IgG1, kappa, L234A L235A, V domains shown, human IgG1 PG LALA; from transgenic rabbit immunization; also called LTBR (0080)) VH: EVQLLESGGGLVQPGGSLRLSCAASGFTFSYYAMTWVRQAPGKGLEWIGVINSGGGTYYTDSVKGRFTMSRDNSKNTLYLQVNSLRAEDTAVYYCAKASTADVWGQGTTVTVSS VL: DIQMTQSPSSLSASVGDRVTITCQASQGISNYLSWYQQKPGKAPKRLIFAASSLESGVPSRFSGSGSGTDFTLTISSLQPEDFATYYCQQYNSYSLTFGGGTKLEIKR
0.00194
